ASSAY REMARKS: refractive index (Na D-line) (dimensionless); wn = mass fraction of the nth substance listed
ASSAY SETUP: 318.15 K; 101 kPa; Liquid; Standard Abbe refractometry; w1 = 0.25
EXPERIMENTAL ENDPOINT: refractive index

OCCNCCO [diethanolamine] + O | 1.36659
CC(O)CN(CC(C)O)CC(C)O (centres undefined) [triisopropanolamine] + O | 1.36653
CC(O)CN (centres undefined) [1-amino-2-propanol] + O | 1.36228
CC(O)CNCC(C)O (centres undefined) [N-(2-hydroxypropyl)-2-hydroxy-1-propanamine] + O | 1.36537

###

ASSAY REMARKS: wn = mass fraction of the nth substance listed
ASSAY SETUP: 333.15 K; 101 kPa; Liquid; Vibrating tube method; w1 = 0.1
EXPERIMENTAL ENDPOINT: mass density (kg/m3)

CC(O)CN (centres undefined) [1-amino-2-propanol] + O | 984.015
CC(O)CNCC(C)O (centres undefined) [N-(2-hydroxypropyl)-2-hydroxy-1-propanamine] + O | 988.56
CC(O)CN(CC(C)O)CC(C)O (centres undefined) [triisopropanolamine] + O | 988.905
OCCNCCO [diethanolamine] + O | 994.401

###

ASSAY REMARKS: wn = mass fraction of the nth substance listed
ASSAY SETUP: 338.15 K; 101 kPa; Liquid; Vibrating tube method; w1 = 0.05
EXPERIMENTAL ENDPOINT: mass density (kg/m3)

OCCNCCO [diethanolamine] + O | 986.501
CC(O)CN(CC(C)O)CC(C)O (centres undefined) [triisopropanolamine] + O | 983.585
CC(O)CN (centres undefined) [1-amino-2-propanol] + O | 981.41
CC(O)CNCC(C)O (centres undefined) [N-(2-hydroxypropyl)-2-hydroxy-1-propanamine] + O | 983.349

###

ASSAY REMARKS: refractive index (Na D-line) (dimensionless); wn = mass fraction of the nth substance listed
ASSAY SETUP: 313.15 K; 101 kPa; Liquid; Standard Abbe refractometry; w1 = 0.1
EXPERIMENTAL ENDPOINT: refractive index

CC(O)CNCC(C)O (centres undefined) [N-(2-hydroxypropyl)-2-hydroxy-1-propanamine] + O | 1.34533
OCCNCCO [diethanolamine] + O | 1.34427
CC(O)CN(CC(C)O)CC(C)O (centres undefined) [triisopropanolamine] + O | 1.34572
CC(O)CN (centres undefined) [1-amino-2-propanol] + O | 1.34343

###

ASSAY REMARKS: wn = mass fraction of the nth substance listed
ASSAY SETUP: 323.15 K; 101 kPa; Liquid; Vibrating tube method; w1 = 0.05
EXPERIMENTAL ENDPOINT: mass density (kg/m3)

CC(O)CNCC(C)O (centres undefined) [N-(2-hydroxypropyl)-2-hydroxy-1-propanamine] + O | 991.263
CC(O)CN(CC(C)O)CC(C)O (centres undefined) [triisopropanolamine] + O | 991.401
OCCNCCO [diethanolamine] + O | 994.141
CC(O)CN (centres undefined) [1-amino-2-propanol] + O | 989.143

###

ASSAY REMARKS: wn = mass fraction of the nth substance listed
ASSAY SETUP: 303.15 K; 101 kPa; Liquid; Concentric cylinders viscometry; w1 = 0.15
EXPERIMENTAL ENDPOINT: viscosity (mPa·s)

CC(O)CN(CC(C)O)CC(C)O (centres undefined) [triisopropanolamine] + O | 1.486
CC(O)CN (centres undefined) [1-amino-2-propanol] + O | 1.372
OCCNCCO [diethanolamine] + O | 1.319
CC(O)CNCC(C)O (centres undefined) [N-(2-hydroxypropyl)-2-hydroxy-1-propanamine] + O | 1.569

###

ASSAY REMARKS: refractive index (Na D-line) (dimensionless); wn = mass fraction of the nth substance listed
ASSAY SETUP: 323.15 K; 101 kPa; Liquid; Standard Abbe refractometry; w1 = 0.1
EXPERIMENTAL ENDPOINT: refractive index

OCCNCCO [diethanolamine] + O | 1.34245
CC(O)CN(CC(C)O)CC(C)O (centres undefined) [triisopropanolamine] + O | 1.34387
CC(O)CNCC(C)O (centres undefined) [N-(2-hydroxypropyl)-2-hydroxy-1-propanamine] + O | 1.34355
CC(O)CN (centres undefined) [1-amino-2-propanol] + O | 1.34154

###

ASSAY REMARKS: wn = mass fraction of the nth substance listed
ASSAY SETUP: 338.15 K; 101 kPa; Liquid; Vibrating tube method; w1 = 0.15
EXPERIMENTAL ENDPOINT: mass density (kg/m3)

CC(O)CNCC(C)O (centres undefined) [N-(2-hydroxypropyl)-2-hydroxy-1-propanamine] + O | 988.199
CC(O)CN (centres undefined) [1-amino-2-propanol] + O | 980.853
OCCNCCO [diethanolamine] + O | 996.929
CC(O)CN(CC(C)O)CC(C)O (centres undefined) [triisopropanolamine] + O | 988.426

###

ASSAY REMARKS: wn = mass fraction of the nth substance listed
ASSAY SETUP: 313.15 K; 101 kPa; Liquid; Vibrating tube method; w1 = 0.15
EXPERIMENTAL ENDPOINT: mass density (kg/m3)

CC(O)CN(CC(C)O)CC(C)O (centres undefined) [triisopropanolamine] + O | 1001.88
OCCNCCO [diethanolamine] + O | 1009.39
CC(O)CN (centres undefined) [1-amino-2-propanol] + O | 994.005
CC(O)CNCC(C)O (centres undefined) [N-(2-hydroxypropyl)-2-hydroxy-1-propanamine] + O | 1001.24

###

ASSAY REMARKS: wn = mass fraction of the nth substance listed
ASSAY SETUP: 303.15 K; 101 kPa; Liquid; Vibrating tube method; w1 = 0.05
EXPERIMENTAL ENDPOINT: mass density (kg/m3)

OCCNCCO [diethanolamine] + O | 1001.98
CC(O)CNCC(C)O (centres undefined) [N-(2-hydroxypropyl)-2-hydroxy-1-propanamine] + O | 999.133
CC(O)CN (centres undefined) [1-amino-2-propanol] + O | 997.087
CC(O)CN(CC(C)O)CC(C)O (centres undefined) [triisopropanolamine] + O | 999.387

###

ASSAY REMARKS: wn = mass fraction of the nth substance listed
ASSAY SETUP: 298.15 K; 101 kPa; Liquid; Concentric cylinders viscometry; w1 = 0.1
EXPERIMENTAL ENDPOINT: viscosity (mPa·s)

OCCNCCO [diethanolamine] + O | 1.27
CC(O)CN (centres undefined) [1-amino-2-propanol] + O | 1.296
CC(O)CN(CC(C)O)CC(C)O (centres undefined) [triisopropanolamine] + O | 1.36
CC(O)CNCC(C)O (centres undefined) [N-(2-hydroxypropyl)-2-hydroxy-1-propanamine] + O | 1.394

###

ASSAY REMARKS: wn = mass fraction of the nth substance listed
ASSAY SETUP: 343.15 K; 101 kPa; Liquid; Vibrating tube method; w1 = 0.2
EXPERIMENTAL ENDPOINT: mass density (kg/m3)

CC(O)CN (centres undefined) [1-amino-2-propanol] + O | 977.354
CC(O)CNCC(C)O (centres undefined) [N-(2-hydroxypropyl)-2-hydroxy-1-propanamine] + O | 987.241
CC(O)CN(CC(C)O)CC(C)O (centres undefined) [triisopropanolamine] + O | 987.395
OCCNCCO [diethanolamine] + O | 999.25

###

ASSAY REMARKS: wn = mass fraction of the nth substance listed
ASSAY SETUP: 328.15 K; 101 kPa; Liquid; Concentric cylinders viscometry; w1 = 0.05
EXPERIMENTAL ENDPOINT: viscosity (mPa·s)

CC(O)CN (centres undefined) [1-amino-2-propanol] + O | 0.6112
OCCNCCO [diethanolamine] + O | 0.6017
CC(O)CNCC(C)O (centres undefined) [N-(2-hydroxypropyl)-2-hydroxy-1-propanamine] + O | 0.6407
CC(O)CN(CC(C)O)CC(C)O (centres undefined) [triisopropanolamine] + O | 0.6164

###

ASSAY REMARKS: wn = mass fraction of the nth substance listed
ASSAY SETUP: 308.15 K; 101 kPa; Liquid; Concentric cylinders viscometry; w1 = 0.05
EXPERIMENTAL ENDPOINT: viscosity (mPa·s)

OCCNCCO [diethanolamine] + O | 0.8569
CC(O)CNCC(C)O (centres undefined) [N-(2-hydroxypropyl)-2-hydroxy-1-propanamine] + O | 0.8984
CC(O)CN(CC(C)O)CC(C)O (centres undefined) [triisopropanolamine] + O | 0.8883
CC(O)CN (centres undefined) [1-amino-2-propanol] + O | 0.8761

###

ASSAY REMARKS: wn = mass fraction of the nth substance listed
ASSAY SETUP: 328.15 K; 101 kPa; Liquid; Concentric cylinders viscometry; w1 = 0.2
EXPERIMENTAL ENDPOINT: viscosity (mPa·s)

OCCNCCO [diethanolamine] + O | 0.9519
CC(O)CNCC(C)O (centres undefined) [N-(2-hydroxypropyl)-2-hydroxy-1-propanamine] + O | 1.052
CC(O)CN (centres undefined) [1-amino-2-propanol] + O | 0.943
CC(O)CN(CC(C)O)CC(C)O (centres undefined) [triisopropanolamine] + O | 1.013
